ASSAY INFO: Pharmacokinetic study in the rat
Format: in vivo
CONDITION LABEL: male, Sprague-Dawley, plasma, PO 5 mg/kg vs IV 2.5 mg/kg, read-out: oral bioavailability (F(%))
Method: Assay 6: Pharmacokinetic Study in the Rat Aqueous solution formulations of test compounds were prepared in 0.1% lactic acid at a pH of between about 5 and about 6. […] Standard pharmacokinetic parameters were assessed by non-compartmental analysis (Model 201 for IV and Model 200 for PO) using WinNonlin (Version 4.0.1, Pharsight, Mountain View, Calif.). […]
MEASUREMENT TYPE: bioavailability

In: Please give the documented bioavailability of COC(=O)N1CCC(CN2CCC(CNC(=O)c3cccc4[nH]c(C(C)C)nc34)CC2)CC1 [Example 1]
Out: ~75%
